Just for reference, PubChem BioAssay AID1851 is where these values come from.

target_of_assay: Cytochrome P450 3A4 (Homo sapiens) (UniProt P08684)
Sequence (P08684 whole entry, looked up): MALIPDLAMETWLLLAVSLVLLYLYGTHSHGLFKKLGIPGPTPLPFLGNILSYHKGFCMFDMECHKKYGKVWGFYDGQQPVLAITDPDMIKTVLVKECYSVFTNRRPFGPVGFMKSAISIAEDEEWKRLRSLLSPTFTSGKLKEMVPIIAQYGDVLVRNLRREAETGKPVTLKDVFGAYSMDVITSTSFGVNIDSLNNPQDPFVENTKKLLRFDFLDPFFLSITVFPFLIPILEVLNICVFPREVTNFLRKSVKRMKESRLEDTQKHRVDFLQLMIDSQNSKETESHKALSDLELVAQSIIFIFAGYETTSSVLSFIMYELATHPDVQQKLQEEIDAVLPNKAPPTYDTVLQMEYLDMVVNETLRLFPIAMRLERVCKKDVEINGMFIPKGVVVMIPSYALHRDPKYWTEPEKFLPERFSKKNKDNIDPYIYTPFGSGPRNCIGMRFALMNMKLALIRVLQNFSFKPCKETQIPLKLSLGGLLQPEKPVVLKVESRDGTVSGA
experiment_notes: Cytochrome panel assay with activity outcomes; also: % is scaled to controls: 0 for no effect and ±100 for the full control effect
reported_conditions: recombinant CYP, pro-luciferin dealkylation, luminescence, p450-cyp3a4; series mostly up to 57.1 µM
About 5,100 (32%) of roughly 16,000 compounds were called active. Another 25% or so got no clear call; they are omitted. This is one part of the list.
measured_attribute: activity, negative = inhibition

The cases that follow already have their activity, negative = inhibition on record.
>  <compound>
Ic1cncc(OC[C@@H]2CCN2)c1

>  <result>
inactive

$$$$
>  <compound>
COc1ccc(OC)c([C@H](O)[C@H](C)N)c1

>  <result>
inactive

$$$$
>  <compound>
c1cc(C2N3CCCN2CC3)ccn1 (stereo not given)

>  <result>
-11.6% [at 11.4 µM] (inactive)

$$$$
>  <compound>
O[C@@H](c1cc(-c2ccccc2)nc2c1ccc1ccccc12)[C@@H]1CCCCN1

>  <result>
-0.102% [at 11.4 µM] (inactive)

$$$$
>  <compound>
O=C(c1cc(=O)[nH]c2ccc(Br)cc12)N1CCC2(CC1)OCCO2

>  <result>
inactive

$$$$

Given the entry COC(=O)C1(C)C=C2C(=C(C)C(=O)C2C)CN1 (stereo not given) , report its measured activity, negative = inhibition.
inactive

Recorded activity, negative = inhibition of COc1ccc(C[C@H]2c3cc(OC)c(OC)cc3CCN2C)cc1OC , please.
inactive

For COC(=O)[C@@H]1c2cc3c(c(O)c2[C@@H](O)C[C@]1(C)O)C(=O)c1c(O)cc2c(c1C3=O)O[C@H]1O[C@@]2(C)[C@@H](O)[C@H](N(C)C)[C@H]1O , what is its reported activity, negative = inhibition?
-12% [at 11.4 µM] (inactive)

# lookup: activity, negative = inhibition of O=C1CCCN1CC#CCN1CCCC1
inactive

GET /values?readout=activity, negative = inhibition&item= CC(C)C[C@H](NP(=O)(O)O[C@@H]1O[C@@H](C)[C@@H](O)[C@@H](O)[C@H]1O)C(=O)N[C@@H](Cc1c[nH]c2ccccc12)C(=O)O
inactive
